Assign Ratio to each entry below.
MEASURED_TARGET: Chymotrypsinogen A (Bos taurus) (UniProt P00766)
RUN_DESCRIPTION: Inhibition of bovine alpha-chymotrypsin assessed as association equilibrium constant relative to [Phe5]SFTI-1
Bridge positions count the residues as written; N and C are the ends. Square brackets hold non-standard residues; d marks the D form. Peptide text beside a SMILES is read from it. Phe(4-NO2) = N[C@@H](Cc1ccc([N+](=O)[O-])cc1)C(=O)O; Phe(4-guanidino) = N=C(N)Nc1ccc(C[C@H](N)C(=O)O)cc1; Phe(4-NH2) = Nc1ccc(C[C@H](N)C(=O)O)cc1; Phe(4-F) = N[C@@H](Cc1ccc(F)cc1)C(=O)O; Phe(4-Me) = Cc1ccc(C[C@H](N)C(=O)O)cc1; 4Pal = N[C@@H](Cc1ccncc1)C(=O)O
Kindly provide the number alone.

If you can, please state the reported Ratio value of CC[C@H](C)[C@@H]1NC(=O)[C@@H]2CCCN2C(=O)[C@@H]2CCCN2C(=O)[C@H]([C@@H](C)CC)NC(=O)[C@H](CO)NC(=O)[C@H](Cc2ccc(NC(=N)N)cc2)NC(=O)[C@H]([C@@H](C)O)NC(=O)[C@@H](NC(=O)[C@H](CCCNC(=N)N)NC(=O)CN)CSSC[C@@H](C(=O)N[C@@H](Cc2ccccc2)C(=O)N2CCC[C@H]2C(=O)N[C@@H](CC(=O)O)C(=O)O)NC1=O (H-GRCT[Phe(4-guanidino)]SIPPICFPD-OH; disulfide 3-11) .
0.09

Entry CC[C@H](C)[C@@H]1NC(=O)[C@@H]2CCCN2C(=O)[C@@H]2CCCN2C(=O)[C@H]([C@@H](C)CC)NC(=O)[C@H](CO)NC(=O)[C@H](Cc2ccc([N+](=O)[O-])cc2)NC(=O)[C@H]([C@@H](C)O)NC(=O)[C@@H](NC(=O)[C@H](CCCNC(=N)N)NC(=O)CN)CSSC[C@@H](C(=O)N[C@@H](Cc2ccccc2)C(=O)N2CCC[C@H]2C(=O)N[C@@H](CC(=O)O)C(=O)O)NC1=O (H-GRCT[Phe(4-NO2)]SIPPICFPD-OH; disulfide 3-11) : reported Ratio = ?
13

Look at this molecule and give its reported Ratio. CC[C@H](C)[C@@H]1NC(=O)[C@@H]2CCCN2C(=O)[C@@H]2CCCN2C(=O)[C@H]([C@@H](C)CC)NC(=O)[C@H](CO)NC(=O)[C@H](Cc2ccc(O)cc2)NC(=O)[C@H]([C@@H](C)O)NC(=O)[C@@H](NC(=O)[C@H](CCCNC(=N)N)NC(=O)CN)CSSC[C@@H](C(=O)N[C@@H](Cc2ccccc2)C(=O)N2CCC[C@H]2C(=O)N[C@@H](CC(=O)O)C(=O)O)NC1=O (H-GRCTYSIPPICFPD-OH; disulfide 3-11)
9.5

Item under review: CC[C@H](C)[C@@H]1NC(=O)[C@@H]2CCCN2C(=O)[C@@H]2CCCN2C(=O)[C@H]([C@@H](C)CC)NC(=O)[C@H](CO)NC(=O)[C@H](Cc2ccc(F)cc2)NC(=O)[C@H]([C@@H](C)O)NC(=O)[C@@H](NC(=O)[C@H](CCCNC(=N)N)NC(=O)CN)CSSC[C@@H](C(=O)N[C@@H](Cc2ccccc2)C(=O)N2CCC[C@H]2C(=O)N[C@@H](CC(=O)O)C(=O)O)NC1=O (H-GRCT[Phe(4-F)]SIPPICFPD-OH; disulfide 3-11) . Reported Ratio?
15

Can you look up the measured Ratio of CC[C@H](C)[C@@H]1NC(=O)[C@@H]2CCCN2C(=O)[C@@H]2CCCN2C(=O)[C@H]([C@@H](C)CC)NC(=O)[C@H](CO)NC(=O)[C@H](Cc2ccc(C)cc2)NC(=O)[C@H]([C@@H](C)O)NC(=O)[C@@H](NC(=O)[C@H](CCCNC(=N)N)NC(=O)CN)CSSC[C@@H](C(=O)N[C@@H](Cc2ccccc2)C(=O)N2CCC[C@H]2C(=O)N[C@@H](CC(=O)O)C(=O)O)NC1=O (H-GRCT[Phe(4-Me)]SIPPICFPD-OH; disulfide 3-11) for me?
12.5

# lookup: Ratio of CC[C@H](C)[C@@H]1NC(=O)[C@@H]2CCCN2C(=O)[C@@H]2CCCN2C(=O)[C@H]([C@@H](C)CC)NC(=O)[C@H](CO)NC(=O)[C@H](Cc2ccc(N)cc2)NC(=O)[C@H]([C@@H](C)O)NC(=O)[C@@H](NC(=O)[C@H](CCCNC(=N)N)NC(=O)CN)CSSC[C@@H](C(=O)N[C@@H](Cc2ccccc2)C(=O)N2CCC[C@H]2C(=O)N[C@@H](CC(=O)O)C(=O)O)NC1=O (H-GRCT[Phe(4-NH2)]SIPPICFPD-OH; disulfide 3-11)
9.5

Find the recorded Ratio belonging to CC[C@H](C)[C@@H]1NC(=O)[C@@H]2CCCN2C(=O)[C@@H]2CCCN2C(=O)[C@H]([C@@H](C)CC)NC(=O)[C@H](CO)NC(=O)[C@H](Cc2ccncc2)NC(=O)[C@H]([C@@H](C)O)NC(=O)[C@@H](NC(=O)[C@H](CCCNC(=N)N)NC(=O)CN)CSSC[C@@H](C(=O)N[C@@H](Cc2ccccc2)C(=O)N2CCC[C@H]2C(=O)N[C@@H](CC(=O)O)C(=O)O)NC1=O (H-GRCT[4Pal]SIPPICFPD-OH; disulfide 3-11) and report it.
5.5

---

MEASURED_TARGET: Chymotrypsinogen A (Bos taurus) (UniProt P00766)
RUN_DESCRIPTION: Inhibition of bovine alpha-chymotrypsin assessed as association equilibrium constant
For each of the molecules below, state its Ka.
Quick note: give the figure in ×10⁶ /M, leave out the unit.

Which value of Ka has been reported for CC[C@H](C)[C@@H]1NC(=O)[C@@H]2CCCN2C(=O)[C@@H]2CCCN2C(=O)[C@H]([C@@H](C)CC)NC(=O)[C@H](CO)NC(=O)[C@H](CCCCN)NC(=O)[C@H]([C@@H](C)O)NC(=O)[C@@H](NC(=O)[C@H](CCCNC(=N)N)NC(=O)CN)CSSC[C@@H](C(=O)N[C@@H](Cc2ccccc2)C(=O)N2CCC[C@H]2C(=O)N[C@@H](CC(=O)O)C(=O)O)NC1=O in the records?
5

Query: Ka; subject: CC[C@H](C)[C@@H]1NC(=O)[C@@H]2CCCN2C(=O)[C@@H]2CCCN2C(=O)[C@H]([C@@H](C)CC)NC(=O)[C@H](CO)NC(=O)[C@H](CCCCN)NC(=O)[C@H]([C@@H](C)O)NC(=O)[C@@H]2CSSC[C@H](NC1=O)C(=O)N[C@@H](Cc1ccccc1)C(=O)N1CCC[C@H]1C(=O)N[C@@H](CC(=O)O)C(=O)NCC(=O)N[C@@H](CCCNC(=N)N)C(=O)N2
5.2
